Hello, the source for this data is patent US11377442B2, in case you need it.

SYSTEM_NAME: NR2F6 (Homo sapiens, UniProt P10588)
Construct: expressed in transfected cells; also transient transfection
Sequence (P10588 1-404): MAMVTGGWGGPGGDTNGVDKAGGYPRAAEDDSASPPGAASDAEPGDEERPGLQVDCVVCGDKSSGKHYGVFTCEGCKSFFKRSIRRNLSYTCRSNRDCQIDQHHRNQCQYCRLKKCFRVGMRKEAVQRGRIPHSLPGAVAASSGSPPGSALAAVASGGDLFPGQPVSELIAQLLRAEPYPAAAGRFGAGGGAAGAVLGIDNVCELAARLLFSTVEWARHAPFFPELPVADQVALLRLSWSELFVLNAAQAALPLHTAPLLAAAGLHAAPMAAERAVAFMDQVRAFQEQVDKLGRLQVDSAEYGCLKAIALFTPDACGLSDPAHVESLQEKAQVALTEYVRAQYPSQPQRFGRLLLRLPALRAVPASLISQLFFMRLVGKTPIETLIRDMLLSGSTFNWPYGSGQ
PROCEDURE_SUMMARY: NR2F6 agonist screening, Firefly signal cmpd/DMSO
Format: cell-based
CONDITION_DETAILS: Table 12; ratio of Firefly in NR2F6 stable clone F4 to pGL4
EXPERIMENTAL_READOUT: Firefly, NR2F6 stable (clone F4)/pGL4

Cc1ccccc1NC(=O)c1ccc2oc(=O)c(S(=O)(=O)c3ccc(F)cc3)cc2c1 [Compound C160]
7.2
Cc1ccc(S(=O)(=O)c2cc3cc(C(=O)Nc4cccc(C)c4C)ccc3oc2=O)cc1 [Compound C134]
7.7
COC(=O)c1ccc2oc(=O)c(S(=O)(=O)c3ccccc3)cc2c1 [Compound C11]
7.0
O=c1oc2ccccc2cc1S(=O)(=O)c1ccc(Br)cc1 [Compound C102]
5.9
CCOc1cccc2cc(S(=O)(=O)c3ccccc3F)c(=O)oc12 [Compound C254]
4.4
COc1ccc(S(=O)(=O)c2cc3ccccc3oc2=O)cc1 [Compound C101]
3.6

P: CCOc1cccc2cc(S(=O)(=O)c3ccc(OC)c(OC)c3)c(=O)oc12 [Compound C248]
Q: O=c1oc2ccc(F)cc2cc1S(=O)(=O)c1ccc(Cl)cc1 [Compound C218]
R: COC(=O)c1ccc2oc(=O)c(S(=O)(=O)c3ccc(OC)cc3)cc2c1 [Compound C12]
Exercise: // sort entries: Firefly, NR2F6 stable (clone F4)/pGL4, high to low Please express your ranking as an ordered list of the labels.
Key: Q, R, P

----------
SYSTEM_NAME: NR2F6 (Homo sapiens, UniProt P10588)
Construct: expressed in transfected cells; also transient transfection
Sequence (P10588 1-404): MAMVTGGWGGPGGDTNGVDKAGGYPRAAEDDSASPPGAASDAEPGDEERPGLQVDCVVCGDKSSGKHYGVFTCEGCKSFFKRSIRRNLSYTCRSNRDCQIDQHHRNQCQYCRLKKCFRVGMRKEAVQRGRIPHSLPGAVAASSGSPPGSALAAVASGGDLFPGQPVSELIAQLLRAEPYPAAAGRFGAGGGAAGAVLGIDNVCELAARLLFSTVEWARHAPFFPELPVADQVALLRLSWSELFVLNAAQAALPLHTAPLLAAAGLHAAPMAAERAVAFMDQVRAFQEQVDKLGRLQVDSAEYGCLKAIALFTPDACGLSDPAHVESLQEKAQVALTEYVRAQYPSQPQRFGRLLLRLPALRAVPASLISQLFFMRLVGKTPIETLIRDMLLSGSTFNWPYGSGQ
PROCEDURE_SUMMARY: NR2F6 agonist screening, Firefly signal cmpd/DMSO
Assay type: cell-based
CONDITION_DETAILS: Table 9; repeat 1
EXPERIMENTAL_READOUT: Firefly, cmpd/DMSO repeat 1

// below: answered compounds
CCOc1cccc2cc(S(=O)(=O)c3ccc(C(C)(C)C)cc3)c(=O)oc12
1.5
COc1cccc(S(=O)(=O)c2cc3cccc(OC)c3oc2=O)c1
1.1
COc1cccc2cc(S(=O)(=O)c3cc(C)cc(C)c3)c(=O)oc12
1.0

a: COc1cccc2cc(S(=O)(=O)c3ccc(C(C)C)cc3)c(=O)oc12
b: COc1cccc2cc(S(=O)(=O)c3ccc(F)c(Cl)c3)c(=O)oc12
Exercise: Which value of Firefly, cmpd/DMSO repeat 1 is greater, the one for a or the one for b ? In your reply, give the label of the chosen option.
Key: a
(a: 2.1, b: 1.2)

----------
PROCEDURE_SUMMARY: Caco-2 permeability assay
Type: in vitro ADME
CONDITION_DETAILS: human, Caco-2, individual replicates
EXPERIMENTAL_READOUT: Papp A→B (×10⁻⁶ cm/s)
Report as a plain number; the unit ×10⁻⁶ cm/s is understood.

Papp A→B reported for this molecule COCCN[C@H]1CS(=O)(=O)C[C@@H]1S(=O)(=O)c1ccc(Cl)cc1 [Compound D136] : 33.6

----------
Tested on: Renilla_ERa
PROCEDURE_SUMMARY: Renilla signal in ERα counterscreen (Renilla_ERa)
Assay type: cell-based
CONDITION_DETAILS: Table 15; 2 uM; read-out: Renilla ERalpha transient, cmpd/DMSO (mean)
EXPERIMENTAL_READOUT: fold induction at 2 µM
Give a plain numeric answer without units written out.

// below: answered molecules
CCOC(=O)c1cnc2c(C)cc(C)cc2c1N1CCC(C)CC1 [Compound Z76]
1.1
CCOC(=O)c1cnc2c(C)cc(C)cc2c1NCCCOC [Compound Z71]
1
CCOC(=O)c1cnc2c(C)cc(C)cc2c1NCc1ccc(Cl)cc1 [Compound Z75]
1
CC(=O)Nc1ccc(NS(C)(=O)=O)c2nonc12 [Compound Z15]
1
CCOC(=O)c1cnc2c(C)cc(C)cc2c1NCCCN1CCCCC1 [Compound Z8]
1.4
CC(=O)Nc1ccc(Br)c2nonc12 [Compound Z14]
1.1

# input for lookup
fold induction at 2 µM reported for this molecule COc1cccc(-c2noc(Cn3ncc(Cl)cc3=O)n2)c1 [Compound Z4] : 1.2

----------
SYSTEM_NAME: NR2F6 (Homo sapiens, UniProt P10588)
Construct: expressed in transfected cells; also transient transfection
Sequence (P10588 1-404): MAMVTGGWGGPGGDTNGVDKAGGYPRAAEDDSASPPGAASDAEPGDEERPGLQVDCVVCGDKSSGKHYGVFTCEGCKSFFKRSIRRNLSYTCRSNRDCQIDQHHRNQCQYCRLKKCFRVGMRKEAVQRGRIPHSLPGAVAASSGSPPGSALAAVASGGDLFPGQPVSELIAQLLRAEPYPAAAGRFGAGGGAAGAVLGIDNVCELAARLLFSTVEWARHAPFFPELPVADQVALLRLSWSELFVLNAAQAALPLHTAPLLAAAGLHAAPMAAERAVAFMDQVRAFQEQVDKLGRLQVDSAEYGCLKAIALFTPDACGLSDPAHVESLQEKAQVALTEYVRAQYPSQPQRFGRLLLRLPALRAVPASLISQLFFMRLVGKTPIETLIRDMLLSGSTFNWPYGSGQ
PROCEDURE_SUMMARY: NR2F6 agonist screening, Firefly signal cmpd/DMSO
Format: cell-based
CONDITION_DETAILS: F4; 10% FBS; 2 uM
EXPERIMENTAL_READOUT: Firefly, F4, 10% FBS, cmpd/DMSO (mean)

CC(C)OCCCN[C@H]1CS(=O)(=O)C[C@@H]1S(=O)(=O)c1ccc(Cl)cc1 [Compound D138]
1.3
CC(C)CCN[C@H]1CS(=O)(=O)C[C@@H]1S(=O)(=O)c1cccs1 [Compound D110]
1.0
O=S1(=O)C[C@H](NC2CCCCC2)[C@@H](S(=O)(=O)c2ccc(Cl)cc2)C1 [Compound D124]
1.0
CC1CCN([C@H]2CS(=O)(=O)C[C@@H]2S(=O)(=O)c2cccs2)CC1 [Compound D106]
1.4

----------
SYSTEM_NAME: NR2F6 (Homo sapiens, UniProt P10588)
Construct: expressed in transfected cells; also transient transfection
PROCEDURE_SUMMARY: NR2F6 agonist screening, Firefly signal cmpd/DMSO
Format: cell-based
CONDITION_DETAILS: raw signal, repeat 2
EXPERIMENTAL_READOUT: Firefly, cmpd repeat 2

P: COc1ccc(NC(=O)c2ccc3nc(-c4ccccc4)cn3c2)c(OC)c1 [Compound P1]
Q: Cc1cc(C)nc(Sc2nnc(-c3ccc(C)c(S(=O)(=O)N4CCOCC4)c3)c3ccccc23)n1 [Compound F1]
R: CCOC(=O)c1cnc2c(C)cc(C)cc2c1NCCCN(C)C [Compound D28]
Exercise: From the records above, write out the order of decreasing Firefly, cmpd repeat 2. Please express your ranking as an ordered list of the labels.
Key: R, Q, P
(R: 644, Q: 252, P: 166)

----------
SYSTEM_NAME: NR2F6 (Homo sapiens)
Construct: expressed in transfected cells; also transient transfection
Sequence (P10588 1-404): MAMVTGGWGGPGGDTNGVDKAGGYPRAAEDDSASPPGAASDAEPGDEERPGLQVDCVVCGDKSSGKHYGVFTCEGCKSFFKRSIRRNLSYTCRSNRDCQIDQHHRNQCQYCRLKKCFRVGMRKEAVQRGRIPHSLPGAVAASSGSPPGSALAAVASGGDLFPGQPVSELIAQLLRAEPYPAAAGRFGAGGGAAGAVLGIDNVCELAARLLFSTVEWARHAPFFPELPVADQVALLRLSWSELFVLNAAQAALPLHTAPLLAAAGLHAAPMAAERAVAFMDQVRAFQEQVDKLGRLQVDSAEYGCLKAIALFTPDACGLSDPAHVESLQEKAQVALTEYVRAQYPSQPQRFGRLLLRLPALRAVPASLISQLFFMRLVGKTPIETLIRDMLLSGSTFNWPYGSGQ
PROCEDURE_SUMMARY: NR2F6 agonist screening, Firefly signal cmpd/DMSO
Format: cell-based
CONDITION_DETAILS: first set screening, 10 μM, repeat 1
EXPERIMENTAL_READOUT: Firefly, cmpd/DMSO repeat 1

// below: answered compounds
O=c1[nH]c(CS(=O)(=O)c2ccccc2)nc2sc3c(c12)CCCC3
2.4
Cc1cc(NC(=O)CCS(=O)(=O)c2nc(-c3ccc4c(c3)OCO4)cc(C(F)(F)F)n2)no1
3.4

A: CCOC(=O)c1cnn2c(-c3ccc(Cl)cc3)ccnc12
B: O=C(Nc1ccc(Cl)cn1)c1ccc(I)cc1
Exercise: Kindly identify the item with the lower Firefly, cmpd/DMSO repeat 1 figure among these two: A and B In your reply, give the label of the chosen option.
Key: A
(A: 2.5, B: 3.8)
